# self-cleavage annotations
B1: Hairpin Ribozyme (parent)
chain: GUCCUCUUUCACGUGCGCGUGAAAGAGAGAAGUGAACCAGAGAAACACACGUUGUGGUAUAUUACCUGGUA

variants of: B1; assay: self-cleavage, relative activity (ratio to wild type); higher = more cleavage; co-transcriptional

Below are worked cases with known answers.
residue.change	measure	val
A31U A35C	self-cleavage	0.185
C48U G54A	self-cleavage	0.163
A26G A47C	self-cleavage	0.251
A31U A64G	self-cleavage	0.0407
A59C A64C	self-cleavage	0.111
G1C G19C	self-cleavage	0.0663

response.value for C66G U70G (field: self-cleavage) = 0.2

// A23C U62A : self-cleavage value = 0.229

Entry G42C G69C ; self-cleavage = 0.145

What the record says about U8C G34C : self-cleavage is 1.16

Value of measured self-cleavage for the entry G40U U62A : 0.141

Consider C16G C38U . Its measured self-cleavage is 0.167

Record U9C A59G , field self-cleavage: 0.0975
